# target_system: Amine oxidase [flavin-containing] B (Homo sapiens, UniProt P27338)
# Sequence (P27338 whole entry): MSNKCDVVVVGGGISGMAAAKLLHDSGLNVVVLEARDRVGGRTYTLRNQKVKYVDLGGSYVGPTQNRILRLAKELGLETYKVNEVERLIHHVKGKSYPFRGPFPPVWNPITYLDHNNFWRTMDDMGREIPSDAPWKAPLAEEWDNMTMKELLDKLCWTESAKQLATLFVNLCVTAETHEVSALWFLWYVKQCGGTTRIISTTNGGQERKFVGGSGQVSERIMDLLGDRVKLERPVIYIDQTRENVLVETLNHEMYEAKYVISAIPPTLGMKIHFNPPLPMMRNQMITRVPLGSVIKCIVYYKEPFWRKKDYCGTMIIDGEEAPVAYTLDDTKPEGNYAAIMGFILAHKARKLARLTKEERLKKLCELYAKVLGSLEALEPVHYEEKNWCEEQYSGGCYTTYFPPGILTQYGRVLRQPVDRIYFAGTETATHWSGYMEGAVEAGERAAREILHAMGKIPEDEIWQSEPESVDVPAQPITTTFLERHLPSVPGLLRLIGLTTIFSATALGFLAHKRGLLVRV
# assay_summary: Inhibition of human recombinant MAO-B expressed in baculovirus-infected BTI cells using benzylamine as substrate preincubated with enzyme for 15 mins followed by substrate addition and measured after 20 mins by Amplex Red reagent based fluorescence analysis
pIC50 reference
Schema: pIC50 number; meaning minus log10 of the concentration expressed in molar units.

Some compounds with recorded pIC50:
COc1cccc(COc2cccc(/C=C3\Oc4cc(O)ccc4C3=O)c2)c1	5.97
O=C1/C(=C/c2cccc(OCc3cccc(Cl)c3)c2)Oc2cc(O)ccc21	5.72
O=C1/C(=C/c2cccc(OCc3ccccc3)c2)Oc2cc(O)ccc21	5.95

Look at this compound and give its reported pIC50. O=C1/C(=C/c2cccc(OCc3ccccc3F)c2)Oc2cc(O)ccc21
6.02

What value of pIC50 has been reported for the following compound? O=C1/C(=C/c2ccc(OCc3ccccc3)cc2)Oc2cc(O)ccc21
6.14

###

# System: MAO-B
# assay_summary: Safety ratio of cytotoxicity against mouse BV-2 cells to IC50 for inhibition of human recombinant MAO-B expressed in baculovirus-infected BTI cells
# Format: toxicity
quantity_kind: selectivity ratio

Before answering, review these 5 worked examples.
O=C1/C(=C/c2ccc(OCc3ccccc3F)cc2)Oc2cc(O)ccc21	> 13.1
O=C1/C(=C/c2ccc(OCc3ccccc3)cc2)Oc2cc(O)ccc21	> 41.6
O=C1/C(=C/c2ccc(OCc3ccccc3Br)cc2)Oc2cc(O)ccc21	> 6
O=C1/C(=C/c2ccc(OCc3ccc(F)cc3)cc2)Oc2cc(O)ccc21	> 30
O=C1/C(=C/c2ccc(OCc3cccc(Br)c3)cc2)Oc2cc(O)ccc21	10.6

Attention now turns to another entry.
Looking for the measured selectivity ratio of O=C1/C(=C/c2ccc(OCc3ccccc3Cl)cc2)Oc2cc(O)ccc21 , can you help?
> 27

###

Measured IC50 of individual entries
# target_system: Amine oxidase [flavin-containing] B (Homo sapiens)
# assay_summary: Inhibition of human recombinant MAO-B expressed in baculovirus-infected BTI cells using benzylamine as substrate preincubated with enzyme for 15 mins followed by substrate addition and measured after 20 mins by Amplex Red reagent based fluorescence analysis
Please don't drop the unit; write it after the number.

Bench note: what IC50 did O=C1/C(=C/c2ccc(OCc3ccc(F)cc3)cc2)Oc2cc(O)ccc21 show?
1000 nM

Look at this molecule and give its reported IC50. O=C1/C(=C/c2ccc(OCc3ccccc3Br)cc2)Oc2cc(O)ccc21
440 nM

For the molecule O=C1/C(=C/c2ccc(OCc3ccccc3Cl)cc2)Oc2cc(O)ccc21 , what IC50 is on record?
380 nM

Item O=C1/C(=C/c2cccc(OCc3cccc(Br)c3)c2)Oc2cc(O)ccc21 has what recorded IC50?
2020 nM

###

// reported pIC50 per item
# target_system: Amine oxidase [flavin-containing] A (Homo sapiens)
# Sequence (P21397 whole entry): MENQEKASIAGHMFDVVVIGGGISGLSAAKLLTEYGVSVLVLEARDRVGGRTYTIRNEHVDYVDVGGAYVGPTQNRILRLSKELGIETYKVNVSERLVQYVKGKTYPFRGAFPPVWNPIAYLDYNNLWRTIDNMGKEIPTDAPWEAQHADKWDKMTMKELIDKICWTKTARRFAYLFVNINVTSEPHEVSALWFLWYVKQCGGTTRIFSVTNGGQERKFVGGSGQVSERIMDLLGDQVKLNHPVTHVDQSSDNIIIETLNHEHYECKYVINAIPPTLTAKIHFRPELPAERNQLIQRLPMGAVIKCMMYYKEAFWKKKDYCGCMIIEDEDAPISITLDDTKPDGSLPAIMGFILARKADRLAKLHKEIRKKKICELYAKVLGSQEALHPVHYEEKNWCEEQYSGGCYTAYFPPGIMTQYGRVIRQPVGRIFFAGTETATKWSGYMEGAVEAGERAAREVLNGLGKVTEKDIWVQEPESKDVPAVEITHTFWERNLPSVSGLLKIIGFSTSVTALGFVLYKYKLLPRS
# assay_summary: Inhibition of human recombinant MAO-A using p-tyramine as substrate preincubated with enzyme for 15 mins followed by substrate addition and measured after 20 mins by Amplex Red reagent based fluorescence analysis
pIC50: −log10 of the molar value.

Answered cases to consult:
O=C1/C(=C/c2cccc(OCc3cccc(Br)c3)c2)Oc2cc(O)ccc21	< 4.00
COc1cccc(COc2cccc(/C=C3\Oc4cc(O)ccc4C3=O)c2)c1	< 4.52
COc1ccc(/C=C2\Oc3cc(O)ccc3C2=O)c(OC)c1OC	< 4.00

Which pIC50 value belongs to O=C1/C(=C/c2cccc(OCc3ccccc3)c2)Oc2cc(O)ccc21 ?
< 4.00

# get_value(readout='pIC50', item= O=C1/C(=C/c2ccc(OCc3ccc(F)cc3)cc2)Oc2cc(O)ccc21 )
< 4.00

###

Reported inhibition at 10 µM values follow for various compounds
# target_system: Amine oxidase [flavin-containing] B (Homo sapiens, UniProt P27338)
# assay_summary: Inhibition of human recombinant MAO-B expressed in baculovirus-infected BTI cells at 10 uM using benzylamine as substrate preincubated with enzyme for 15 mins followed by substrate addition and measured after 20 mins by Amplex Red reagent based fluorescence analysis
# test_parameters: time 35 min
Kindly answer with a numeric value in %, unit omitted.

Worked cases, answers included:
COc1cccc(COc2ccc(/C=C3\Oc4cc(O)ccc4C3=O)cc2)c1	59.7
O=C1/C(=C/c2cccc(OCc3cccc(F)c3)c2)Oc2cc(O)ccc21	55.1

Dear colleague, I am looking for the recorded inhibition at 10 µM of the following compound: O=C1/C(=C/c2ccc(OCc3ccccc3Cl)cc2)Oc2cc(O)ccc21
81.3

###

Recorded inhibition at 10 µM for the following molecules
# target_system: UniProtKB P27338
# assay_summary: Inhibition of human recombinant MAO-B expressed in baculovirus-infected BTI cells at 10 uM using benzylamine as substrate preincubated with enzyme for 15 mins followed by substrate addition and measured after 20 mins by Amplex Red reagent based fluorescence analysis
# test_parameters: time 35 min
Field: numeric (%). Do not append units.

Sample records with inhibition at 10 µM:
O=C1/C(=C/c2cccc(OCc3cccc(Cl)c3)c2)Oc2cc(O)ccc21	61.7
O=C1/C(=C/c2cccc(OCc3ccc(F)cc3)c2)Oc2cc(O)ccc21	60.7

Okay, next one:
# query: inhibition at 10 µM of entry O=C1/C(=C/c2ccc(OCc3cccc(Cl)c3)cc2)Oc2cc(O)ccc21
59

###

# target_system: Amine oxidase [flavin-containing] B (Homo sapiens, UniProt P27338)
# assay_summary: Inhibition of human recombinant MAO-B expressed in baculovirus-infected BTI cells using benzylamine as substrate preincubated with enzyme for 15 mins followed by substrate addition and measured after 20 mins by Amplex Red reagent based fluorescence analysis
quantity_kind: IC50 (µM)
Number only, in µM; omit the unit.

Record excerpt, results attached:
O=C1/C(=C/c2cccc(OCc3ccc(Cl)cc3)c2)Oc2cc(O)ccc21	1.81
O=C1/C(=C/c2cccc(OCc3ccc(F)cc3)c2)Oc2cc(O)ccc21	2.37
O=C1/C(=C/c2ccc(OCc3ccccc3F)cc2)Oc2cc(O)ccc21	0.76

Returns the measured IC50 for the input compound. Input: O=C1/C(=C/c2cccc(OCc3ccc(Br)cc3)c2)Oc2cc(O)ccc21
1.67

Consider the compound O=C1/C(=C/c2ccc(OCc3cccc(Br)c3)cc2)Oc2cc(O)ccc21 and give its measured IC50.
0.95
